- system_tested: GCS (Canis lupus familiaris)
- Construct: endogenous in cells; host or cells: MDCK (Madin-Darby canine kidney) cells, whole-cell lysate
- Sequence (A0A8I3MXG6 1-394): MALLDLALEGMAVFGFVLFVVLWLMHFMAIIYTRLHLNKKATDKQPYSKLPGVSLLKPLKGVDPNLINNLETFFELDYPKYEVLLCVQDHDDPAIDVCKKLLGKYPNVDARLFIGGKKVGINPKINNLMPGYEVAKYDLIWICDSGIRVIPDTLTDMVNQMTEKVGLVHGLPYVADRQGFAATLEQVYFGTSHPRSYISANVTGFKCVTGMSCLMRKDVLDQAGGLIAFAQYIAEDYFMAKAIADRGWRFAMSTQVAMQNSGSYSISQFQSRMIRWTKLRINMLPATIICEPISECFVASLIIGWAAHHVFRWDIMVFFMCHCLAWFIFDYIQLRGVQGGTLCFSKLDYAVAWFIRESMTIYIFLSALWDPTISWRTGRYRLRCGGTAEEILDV
- measurement_description: GCS enzymatic assay (MDCK cell lysate, NBD-ceramide to glucosylceramide, LC/MS)
- Assay type: biochemical, canine
- condition_set: Table 2; class symbols A, B, C; the table does not say which of the assays; read-out: Data Range (IC50 values)
pIC50: −log10 of the molar value.
measured_parameter: pIC50

Provide pIC50, recorded with GCS (Canis lupus familiaris), of Cn1ncc2ccc(N3CC[C@H](C(=O)N[C@H](CN4CCCC4)[C@H](O)c4ccc5c(c4)OCCO5)C3)cc21 [Compound 61D]
7.52 to 9.00

Provide pIC50, recorded with GCS (Canis lupus familiaris), of O=C(N[C@H](CN1CCCC1)[C@H](O)c1cc(F)c2c(c1)OCCO2)[C@@H]1CCN(c2ccc(Cl)c(-c3ccc(F)cc3)n2)C1 [Compound 144]
7.52 to 9.00
